- Test system: HeLa
- assay.name: Cytotoxicity against human HeLa cells assessed as cell viability after 72 hrs by MTS assay
- Format: cell-based
assay.metric: CC50 (µg/mL)
Give a bare numeral; the unit µg/mL is implied.

CN1CCCN=C1c1ccc2cc(-c3ccc(-c4cc5ccc(C6=NCCCN6C)cc5[nH]4)cc3)[nH]c2c1    4.7

Problem: Consider the molecule CC(=O)O.c1cc2cc(-c3ccc4cc(C5=NCCCN5)[nH]c4c3)oc2cc1C1=NCCCN1 tested on HeLa; state its CC50.
Solution: 40.5

###

# MIC values compiled below
- Test system: Candida albicans
- assay.name: Antifungal activity against Candida albicans WTBF-50 by microbroth dilution method
- Assay type: functional
Enter your answer as a number in µg/mL; do not include the unit.

CC(C)NC(=N)c1ccc2cc(-c3ccc(-c4cc5ccc(C(=N)NC(C)C)cc5[nH]4)cc3)[nH]c2c1.O=C(O)C(F)(F)F    0.5
CC(=O)O.c1cc2cc(-c3cnc(-c4cc5ccc(C6=NCCCN6)cc5o4)cn3)oc2cc1C1=NCCCN1    20.2
Clc1c(-c2ccc(-c3[nH]c4cc(C5=NCCCN5)ccc4c3Cl)cc2)[nH]c2cc(C3=NCCCN3)ccc12.O=C(O)C(F)(F)F    0.4
O=C(O)C(F)(F)F.c1cc2cc(-c3ccc(-c4nc5ccc(C6=NCCCN6)cc5[nH]4)cc3)[nH]c2cc1C1=NCCCN1    0.4
c1cc2cc(CCCc3cc4ccc(C5=NCCCN5)cc4[nH]3)[nH]c2cc1C1=NCCCN1    22.6
CC(=O)O.c1cc2cc(-c3ccc4cc(C5=NCCCN5)[nH]c4c3)oc2cc1C1=NCCCN1    4
CC(=O)O.c1cc2cc(-c3ccc4oc(C5=NCCCN5)cc4c3)[nH]c2cc1C1=NCCCN1    0.4
Brc1c(-c2ccc(-c3[nH]c4cc(C5=NCCCN5)ccc4c3Br)cc2)[nH]c2cc(C3=NCCCN3)ccc12.O=C(O)C(F)(F)F    0.63
COCCNC(=N)c1ccc2cc(-c3ccc(-c4cc5ccc(C(=N)NCCOC)cc5[nH]4)cc3)[nH]c2c1.O=C(O)C(F)(F)F    0.79
Cl.OCC1(CO)CN=C(c2ccc3cc(-c4ccc(-c5cc6ccc(C7=NCC(CO)(CO)CN7)cc6[nH]5)cc4)[nH]c3c2)NC1    1.26

Problem: Determine its reported MIC: CC(=O)N1CCN(c2ccc(OCC3COC(Cn4ccnc4)(c4ccc(Cl)cc4Cl)O3)cc2)CC1 (configuration not stated) [KETOCONAZOLE]
Solution: 20.2

Problem: Give MIC for the following compound: CC(=O)O.c1cc2cc(-c3ccc4cc(C5=NCCCN5)[nH]c4c3)sc2cc1C1=NCCCN1
Solution: 3.17

Problem: Tell me MIC reported for CC1(C)CN=C(c2ccc3cc(-c4ccc(-c5cc6ccc(C7=NCC(C)(C)CN7)cc6[nH]5)cc4)[nH]c3c2)NC1.O=C(O)C(F)(F)F
Solution: 4

Problem: Answer with the recorded MIC for the compound listed here: N=C(N)c1ccc(OCCCCCOc2ccc(C(=N)N)cc2)cc1 [PENTAMIDINE]
Solution: 25

Problem: Identify the reported MIC for the following entry. Cl.N=C(N)c1ccc2cc(-c3ccc(-c4cc5ccc(C(=N)N)cc5[nH]4)cc3)[nH]c2c1
Solution: 16

Problem: Please supply the value of reported MIC for the item CC(=O)O.c1cc2cc(-c3ccc4cc(C5=NCCCN5)oc4c3)[nH]c2cc1C1=NCCCN1
Solution: 0.31
